# maps each entry to its MMP2 production, Experiment 1 (human atrial fibroblasts + TGFB1)
# target entity: T1, Human IL-11 (human, UniProt P20809 22-199); also: test concentration or dose not given here
# T1 sequence: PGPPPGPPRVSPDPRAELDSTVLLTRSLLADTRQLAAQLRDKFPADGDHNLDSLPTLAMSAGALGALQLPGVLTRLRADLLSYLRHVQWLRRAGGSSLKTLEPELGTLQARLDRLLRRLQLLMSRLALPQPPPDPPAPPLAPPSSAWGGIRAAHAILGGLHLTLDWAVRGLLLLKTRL
# protocol summary: cell-based or functional assay
measured property: MMP2 production, Experiment 1 (human atrial fibroblasts + TGFB1) (ng/mL)

INSERT INTO results (binder, recorded_value) VALUES
  ('YU100-G09 (antibody) EVQLVESGGGVVQPGRSLRLSCAASGFTFSSYGMHWVRQAPGKGLEWVAVISYDGSNKYYADSVKGRFTISRDNSKNTLYLQMNSLRAEDTAVYYCAKIGATDPLDYWGQGTLVTVSSGSASAPKLEEGEFSEARVQSALTQPRSVSGSPGQSVTISCTGTISDVGGYNYVSWYQQHPGKAPKLMIYDVTKRPSGVPDRFSGSKSGNTASLTISGLQAEDEAGYYCSSYAGSYTWVFGGGTKLTVL', 59.9),
  ('YU100-A12 (antibody) QVQLVESGGGVVQPGRSLRLSCAASGFTFSSYGMHWVRQAPGKGLEWVAVISYDGSNKYYADSVKGRFTISRDNSKNTLYLQMNSLRAEDTAVYYCAKIGATDPLDYWGQGTLVTVSSGSASAPKLEEGEFSEARVLPVLTQPRSVSGSPGQSVTISCTGTSSDVGGYNYVSWYQQHPGKAPKLMIYDVSKRPSGVPDRFSGSKSGDTASLTISGLQAEDEADYYCSSYAGSYTWVFGGGTKLTVL', 59.5),
  ('YU100-E11 (antibody) QVQLVESGGGVVQPGRSLRLSCAASGFTFSSYGMHWVRQAPGKGLEWVAVISYDGSNKYYADSVKGRFTISRDNSKNTLYLQMNSLRAEDTAVYYCARIMGYDYGDYDVVDYWGQGTLVTVSSGSASAPKLEEGEFSEARVQSALTQPRSVSGSPGQSVTISCTGTSSDVGGYNYVSWYQQHPGKAPKLMIYDVSKRPSGVPDRFSGSKSGNTASLTISGLQAEDEADYYCCSYAGSYTWVFGGGTKLTVL', 49.1),
  ('YU112-H02 (antibody) QVQLVESGGGVVQPGRSLRLSCAASGFTFSSYGMHWVRQAPGKGLEWVAVISYDGSNKYYADSVKGRFTISRDNSKNTLYLQMNSLRAEDTAVYYCAKLSGPNGVDYWGQGTLVTVSSGSASAPKLEEGEFSEARVQPVLTQPRSVSGSPGQSVTISCTGTSSDVGGYNYVSWYQQHPGKAPKVMIYDVSKRPSGVPDRFSGSKSGNTASLTISGLQAEDEADYYCCSYAGSYTWVFGGGTKLTVL', 65.3),
  ('YU112-E07 (antibody) QVQLVQSGGGVVQPGRSLRLSCAASGFTFGSYGMHWVRQAPGKGLEWVAVISYDGSNKYYADSVKGRFTISRDNSKNTLYLQMNSLRAEDTAVYYCAKGSYYFDYWGQGTLVTVSSGSASAPKLEEGEFSEARVEIVMTQSPDSLAVSLGERATINCKSSQSVNSAYLAWYQHKPGQPPRLLIYGASRRVTGVPDRFSGSGSGTDFTLTISSLQPEDFATYYCQQSYSDPRWTFGQGTKVEIK', 53.5);
